# Tested on: lacZ under control of the tetA promoter (PtetA) in E. coli KM3
# Type: cell-based
# Condition summary: Table 4; ethametsulfuron 20 ppm; 48 hrs at 30° C.
Assay readout: relative β-galactosidase activity, inducer Es

INSERT INTO assay_data (molecule, readout_value) VALUES
  ('L1-28: SU-responsive TetR(B) variant, library L1 hit (protein, Sulfonylurea responsive repressor L1-28) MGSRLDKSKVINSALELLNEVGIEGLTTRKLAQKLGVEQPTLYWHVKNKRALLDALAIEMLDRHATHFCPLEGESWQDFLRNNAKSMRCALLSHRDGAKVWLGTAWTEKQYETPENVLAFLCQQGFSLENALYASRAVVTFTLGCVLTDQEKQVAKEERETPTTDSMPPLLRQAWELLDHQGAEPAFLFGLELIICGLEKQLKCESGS', 0.8);
